assay: in vivo; conditions: Sprague-Dawley, rat, po, 6 g/kg
Quantity measured: Tmax (min)
Respond with the bare value in min.

What the record says about O=C1c2cc(O)cc(O)c2C(=O)c2c(O)cc(CO)cc21 : Tmax is 15

---

assay: in vivo; settings: Sprague-Dawley, rat, po, 18 g/kg
Quantity measured: half-life (h)
Respond with the bare value in h.

What the record says about O=C1c2cc(O)cc(O)c2C(=O)c2c(O)cc(CO)cc21 : half-life is 3.78

---

test: in vivo; conditions: both, Sprague-Dawley, rat, po, 18 g/kg, AUC0-t in brain
Quantity measured: AUC(0-t) (nM·h)
Respond with the bare value in nM·h.

What the record says about O=C1c2cc(O)cc(O)c2C(=O)c2c(O)cc(CO)cc21 : AUC(0-t) is 5.83
